Molecular target: Papain (Carica papaya)
Sequence (P00784 whole entry): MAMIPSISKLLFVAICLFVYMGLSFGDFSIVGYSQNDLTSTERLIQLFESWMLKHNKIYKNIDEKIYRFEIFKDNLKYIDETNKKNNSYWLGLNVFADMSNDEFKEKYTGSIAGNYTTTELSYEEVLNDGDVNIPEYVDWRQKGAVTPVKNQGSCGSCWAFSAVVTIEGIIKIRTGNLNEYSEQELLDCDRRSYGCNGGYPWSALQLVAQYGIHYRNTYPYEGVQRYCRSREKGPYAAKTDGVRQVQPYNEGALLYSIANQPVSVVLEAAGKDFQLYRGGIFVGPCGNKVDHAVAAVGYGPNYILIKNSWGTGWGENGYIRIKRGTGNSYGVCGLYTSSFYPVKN
Assay: Inhibition of papaya papain using methyl hippurate as substrate by titrimetric method
assay-metric: pKi
Answers are plain numbers, as −log10 of the molar value.

Exercise: Assign pKi to the following record: "COC(=O)N[C@@H](Cc1ccccc1)C(=O)NCC#N"
Key: 2.16

====

Peptide text beside a SMILES is read from it. * marks the point of attachment. Cbz = O=C(OCc1ccccc1)*
Cathepsin B (Homo sapiens): recorded Ki for assorted compounds
Numbers only, in mM.

Known Ki results, listed for orientation:
Exercise: Note down Ki recorded for COC(=O)CNC(=O)[C@H](Cc1ccccc1)NC(=O)OCc1ccccc1 (Cbz-Phe-Gly-OMe)
Key: 13.5

Exercise: For O=C(O)CNC(=O)[C@H](Cc1ccccc1)NC(=O)OCc1ccccc1 (Cbz-Phe-Gly-OH) , write its Ki.
Key: 5.61

Others:
Exercise: Return Ki for the following compound: "CC[C@H](C)[C@H](NC(=O)[C@H](CCCNC(=N)N)NC(=O)OCc1ccccc1)C(=O)N[C@H](/C=N/NC(N)=O)Cc1ccccc1"
Key: 0.0005

====

Target: UniProt P00784
Sequence (P00784 whole entry): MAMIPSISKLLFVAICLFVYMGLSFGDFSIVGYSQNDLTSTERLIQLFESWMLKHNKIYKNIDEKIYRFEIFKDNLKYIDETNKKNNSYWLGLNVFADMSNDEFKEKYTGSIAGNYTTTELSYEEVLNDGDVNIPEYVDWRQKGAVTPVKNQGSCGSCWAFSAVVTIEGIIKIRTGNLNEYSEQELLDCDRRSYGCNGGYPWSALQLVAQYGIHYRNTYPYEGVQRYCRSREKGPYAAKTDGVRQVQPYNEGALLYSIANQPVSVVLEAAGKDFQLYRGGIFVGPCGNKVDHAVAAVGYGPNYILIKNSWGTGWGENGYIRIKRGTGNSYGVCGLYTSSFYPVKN
assay-metric: pIC50
Numbers only, as −log10 of the molar value.

Fill in pIC50 for each of the 2 molecules listed.
1. CCOP(=O)(/C=C/C(NC(=O)[C@H](Cc1ccccc1)NC(=O)[C@H](Cc1ccccc1)NC(=O)OC(C)(C)C)c1ccccc1)OCC (mixture of isomers)
2. CCOP(=O)(/C=C/C(NC(=O)[C@H](Cc1ccccc1)NC(=O)[C@H](Cc1ccccc1)NC(=O)OCc1ccccc1)c1ccccc1)OCC (mixture of isomers)

Key:
[4.08, 3.90]

Look up pIC50 for the entries below, preserving their order.
1. CCOP(=O)(/C=C/C(NC(=O)[C@H](Cc1ccccc1)NC(=O)OC(C)(C)C)c1ccccc1)OCC (mixture of isomers)
2. CCOP(=O)(/C=C/C(NC(=O)[C@H](CC(C)C)NC(=O)[C@H](Cc1ccccc1)NC(=O)OC(C)(C)C)c1ccccc1)OCC (mixture of isomers)

Key:
1. 4.40
2. 3.88
